assay: Cytotoxicity against human 8226/DOX40 cells after 48 hrs by luminometric analysis in presence of HS5 bone marrow stromal cells; type: functional, cell-based
Task for the reader: assign each of the following molecules its reported IC50.
Put your answer as a value accompanied by its unit after it.

Some entries whose results are on file:
{"MOLECULE": "CC(=O)OC[C@]12Oc3c(-c4ccc5c(c4O)C(=O)C4=C(O)C[C@@H](C)[C@@H](OC(C)=O)[C@@]4(CO)O5)ccc(O)c3C(=O)C1=C(O)C[C@@H](C)[C@H]2OC(C)=O (relative stereo)", "IC50": "21.6 µM"}
{"MOLECULE": "CC(=O)OC[C@]12Oc3ccc(-c4ccc5c(c4O)C(=O)C4=C(O)C[C@@H](C)[C@@H](OC(C)=O)[C@@]4(CO)O5)c(O)c3C(=O)C1=C(O)C[C@@H](C)[C@H]2OC(C)=O", "IC50": "2.3 µM"}
{"MOLECULE": "CC(=O)O[C@@H]1[C@H](C)CC(O)=C2C(=O)c3c(ccc(-c4ccc5c(c4O)C(=O)C4=C(O)C[C@@H](C)[C@@H](OC(C)=O)[C@@]4(CO)O5)c3O)O[C@@]21CO", "IC50": "36.9 µM"}

State recorded IC50 for all listed molecules.
1. CC(=O)OC[C@]12Oc3cccc(O)c3C(=O)C1=C(O)C[C@@H](C)[C@H]2OC(C)=O (relative stereo)
2. CC(=O)OC[C@]12Oc3ccc(-c4ccc5c(c4O)C(=O)C4=C(O)C[C@@H](C)[C@@H](OC(C)=O)[C@@]4(COC(C)=O)O5)c(O)c3C(=O)C1=C(O)C[C@@H](C)[C@H]2OC(C)=O

1: 24.2 µM; 2: 13.9 µM

====

experiment: Cytotoxicity against human KMS34 cells after 48 hrs by luminometric analysis in presence of HS5 bone marrow stromal cells; format: functional, cell-based; settings: KMS-34, 48 h
OBSERVED_PROPERTY: IC50 (µM)
One number for each entry, in µM.

Solved entries (count: 2):
{"COMPOUND": "CC(=O)OC[C@]12Oc3cccc(O)c3C(=O)C1=C(O)C[C@@H](C)[C@H]2OC(C)=O (relative stereo)", "IC50 [µM]": 199}
{"COMPOUND": "CC(=O)OC[C@]12Oc3ccc(-c4ccc5c(c4O)C(=O)C4=C(O)C[C@@H](C)[C@@H](OC(C)=O)[C@@]4(CO)O5)c(O)c3C(=O)C1=C(O)C[C@@H](C)[C@H]2OC(C)=O", "IC50 [µM]": 9.3}

Now for another entry.
Provide IC50 value for the following compound: CC(=O)OC[C@]12Oc3c(-c4ccc5c(c4O)C(=O)C4=C(O)C[C@@H](C)[C@@H](OC(C)=O)[C@@]4(CO)O5)ccc(O)c3C(=O)C1=C(O)C[C@@H](C)[C@H]2OC(C)=O (relative stereo)
55.6

====

assay: Cytotoxicity against human OCI-My5 cells after 48 hrs by luminometric analysis in presence of HS5 bone marrow stromal cells; type: functional, cell-based; conditions: OCI-My5, 48 h
I'd be grateful if you could share measured IC50 for these entries.
Answers are plain numbers, in µM.

{"COMPOUND": "CC(=O)OC[C@]12Oc3ccc(-c4ccc5c(c4O)C(=O)C4=C(O)C[C@@H](C)[C@@H](OC(C)=O)[C@@]4(CO)O5)c(O)c3C(=O)C1=C(O)C[C@@H](C)[C@H]2OC(C)=O [DICERANDROL B]", "IC50, µM": 5.7}
{"COMPOUND": "CC(=O)OC[C@]12Oc3c(-c4ccc5c(c4O)C(=O)C4=C(O)C[C@@H](C)[C@@H](OC(C)=O)[C@@]4(CO)O5)ccc(O)c3C(=O)C1=C(O)C[C@@H](C)[C@H]2OC(C)=O (relative stereo)", "IC50, µM": 47.7}

Could you now look at the following compound, please?
Consider the compound CC(=O)OC[C@]12Oc3cccc(O)c3C(=O)C1=C(O)C[C@@H](C)[C@H]2OC(C)=O (relative stereo) . State its measured IC50.
384

These data points were gathered from ChEMBL document CHEMBL2034906.
